Taken from ChEMBL document CHEMBL3596154.

- target-under-test: Nuclear receptor ROR-gamma (Homo sapiens, UniProt P51449)
- Sequence (P51449 whole entry, the tested form may be a part): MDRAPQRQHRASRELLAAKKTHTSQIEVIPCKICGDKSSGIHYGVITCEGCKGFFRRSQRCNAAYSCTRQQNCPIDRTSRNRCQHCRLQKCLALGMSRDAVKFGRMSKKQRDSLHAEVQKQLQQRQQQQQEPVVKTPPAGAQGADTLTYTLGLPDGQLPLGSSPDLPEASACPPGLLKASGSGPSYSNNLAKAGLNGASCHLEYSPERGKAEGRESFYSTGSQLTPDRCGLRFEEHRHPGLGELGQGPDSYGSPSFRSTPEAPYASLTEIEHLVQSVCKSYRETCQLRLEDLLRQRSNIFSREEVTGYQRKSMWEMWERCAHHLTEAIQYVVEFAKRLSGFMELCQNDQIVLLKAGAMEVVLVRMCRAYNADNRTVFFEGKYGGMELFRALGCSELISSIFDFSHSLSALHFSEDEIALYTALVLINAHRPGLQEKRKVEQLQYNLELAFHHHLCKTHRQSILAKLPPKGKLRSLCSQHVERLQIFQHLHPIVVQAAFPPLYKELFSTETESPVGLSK
- experiment: Inverse agonist activity at Gal4 DNA binding domain-tagged human RORgammat expressed in HEK293T cells assessed as effect on receptor-mediated transcriptional activity by luciferase reporter gene assay
Threshold 300 nM: EC50 strictly smaller gives Fulfilled, otherwise Not fulfilled.

Consider the following illustrative entries.
CN(C(=O)c1c(F)cccc1Cl)c1ccc(-c2cc(C(N)=O)ccc2Cl)cc1C(F)(F)F Not fulfilled
CCCOc1cc(-c2cc(C(N)=O)ccc2Cl)ccc1N(C)C(=O)c1c(F)cccc1Cl Fulfilled
CN(C(=O)c1c(F)cccc1Cl)c1ncc(-c2cc(C(N)=O)ccc2Cl)cc1OCC1CCC1 Fulfilled
NC(=O)c1ccc(Cl)c(-c2ccc3c(c2)CCCN3C(=O)c2c(F)cccc2Cl)c1 Fulfilled
CC(C)Oc1cc(-c2cc(C(N)=O)ccc2Cl)ccc1N(C)C(=O)c1c(F)cccc1Cl Fulfilled
NC(=O)c1ccc(Cl)c(-c2ccc3c(c2)CCCCN3C(=O)c2c(F)cccc2Cl)c1 Not fulfilled
CN(C(=O)c1c(F)cccc1Cl)c1ccc(-c2cc(C(N)=O)ccc2Cl)cc1OCC(F)(F)F Fulfilled
O=C(NC1CCCC1)c1ccc(Cl)c(-c2ccc3c(c2)CCCN3C(=O)c2c(F)cccc2Cl)c1 Not fulfilled

Query block: Hello, is EC50 of the following compound strictly smaller than 300 nM? CNC(=O)c1ccc(Cl)c(-c2ccc3c(c2)CCCN3C(=O)c2c(F)cccc2Cl)c1
Result block: Fulfilled
